Substrate: PEF
Assay: Proxy for plastic degradation [kcat] (s⁻¹)
Settings: pH 9
Below, each entry is listed alongside its reported Proxy for plastic degradation.

unnamed (protein) MNFPRASRLMQAAVLGGLMAVSAAATAQTNPYARGPNPTAASLEASAGPFTVRSFTVSRPSGYGAGTVYYPTNAGGTVGAIAIVPGYTARQSSIKWWGPRLASHGFVVITIDTNSTLDQPSSRSSQQMAALRQVASLNGTSSSPIYGKVDTARMGVMGWSMGGGGSLISAANNPSLKAAAPQAPWDSSTNFSSVTVPTLIFAAENDSIAPVNSSALPIYDSMSRNAKQFLEINGGSHSAANSGNSNQALIGKKGVAWMKRFMDNDTRYSTFACENPNSTRVSDFRTANCS | 0

Then this protein:
Entry unnamed (protein) MNFPRASRLMQAAVLGGLMAVSAAATAQTNPYARGPNPTAASLEASAGPFTVRSFTVSRPSGYGAGTVYYPTNAGGTVGAIAIVPGYTARQSSIKWWGPRLASHGFVVITIDTNSTLDQPSSRSSQQMAALRQVASLNGTSSSPIYGKVDTARMGVMGHSMGGGGSLISAANNPSLKAAAPQAPWDSSTNFSSVTVPTLIFAAENDSIAPVNSSALPIYDSMSRNAKQFLEINGGSHFAANSGNSNQALIGKKGVAWMKRFMDNDTRYSTFACENPNSTRVSDFRTANCS has what Proxy for plastic degradation?
0
